# Tested on: Prostaglandin E2 receptor EP2 subtype (Homo sapiens) (UniProt P43116)
# Sequence (P43116 whole entry, looked up): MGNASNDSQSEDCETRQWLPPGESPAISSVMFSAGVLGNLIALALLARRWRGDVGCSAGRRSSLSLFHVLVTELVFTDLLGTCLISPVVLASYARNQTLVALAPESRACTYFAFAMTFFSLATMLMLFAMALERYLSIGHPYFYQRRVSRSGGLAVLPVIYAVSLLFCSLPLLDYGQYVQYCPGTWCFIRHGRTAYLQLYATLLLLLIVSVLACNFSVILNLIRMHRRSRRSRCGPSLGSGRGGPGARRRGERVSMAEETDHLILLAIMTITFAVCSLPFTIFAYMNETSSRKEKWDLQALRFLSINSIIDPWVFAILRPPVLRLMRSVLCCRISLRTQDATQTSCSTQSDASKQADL
# Assay comment: blockers of PGE2-driven EP2 cAMP signalling – TR-FRET cAMP, C6 glioma cells, primary screen (AID 1422);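 note: rat C6 glioma host cells with rolipram phosphodiesterase inhibitor present; the protocol text gives 20 µM as final concentration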
# Condition summary: C6 glioma cells expressing human EP2, cAMP TR-FRET; at 25 µM; cells stimulated with saturating PGE2
Out of some 260,000 compounds screened, about 1,300 (0.5%) were called active.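 Rule for the calls: active = percent inhibition above 40 after rounding to a whole number; inactive = the rest.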 This is one part of a sample in which actives are shown more often than they occur.
Use one of these outcomes when replying: 1 for active, 0 for inactive

# Input smiles, Group label
rows = [
    ("COc1ccc2nc(Nc3nc(-c4cc5ccccc5oc4=O)cs3)sc2c1", 0),
    ("CCOC(=O)c1cc(-c2ccc(Cl)s2)nc2c1c(C)nn2C", 1),
    ("Cc1cc(C)cc(NC(=O)CSc2nc3c(c(=O)n(C)c(=O)n3C)n2C(C)C)c1", 0),
    ("O=C(O)c1c(Br)c(Br)c(Br)c(Br)c1C1c2ccc(O)cc2Oc2cc(O)ccc21", 1),
    ("COc1ccc(C2(NC(=O)c3ccc(N4CCCCS4(=O)=O)cc3)CCCC2)cc1", 0),
]

Would you mind telling me which call this test gave COc1ccccc1C1(NC(=O)c2snnc2C)CCCC1 ?
0

----------
# Tested on: Prostaglandin E2 receptor EP2 subtype (Homo sapiens) (UniProt P43116)
# Assay comment: blockers of PGE2-driven EP2 cAMP signalling – TR-FRET cAMP, C6 glioma cells, primary screen (AID 1422)
# Condition summary: C6 glioma cells expressing human EP2, cAMP TR-FRET; at 25 µM; hits give high values; cells stimulated with saturating PGE2
Hit rate of the full screen: of about 260,000 compounds, about 1,300 (0.5%) were called active. What follows is part of a selection rich in actives, with near analogues and random picks from the rest.
Measure: inhibition

# Compound, Tested on, inhibition
rows = [
    ("COC(=O)C(C)NC(=O)COc1ccc2ccccc2c1 (configuration not stated)", "Prostaglandin E2 receptor EP2 subtype (Homo sapiens) (UniProt P43116)", "8.28% (inactive)"),
    ("O=C(CSc1nnc(-c2ccccc2)o1)N1CCOCC1", "Prostaglandin E2 receptor EP2 subtype (Homo sapiens) (UniProt P43116)", "8.71% (inactive)"),
    ("CN(C)c1ncc(CN2CCC(O)(c3ccccc3F)CC2)cn1", "Prostaglandin E2 receptor EP2 subtype (Homo sapiens) (UniProt P43116)", "5.6% (inactive)"),
    ("Cc1cc2nc(-c3ccc(SCC(=O)N4CCCCC4C)nc3)[nH]c2cc1C (configuration not stated)", "Prostaglandin E2 receptor EP2 subtype (Homo sapiens) (UniProt P43116)", "12.4% (inactive)"),
    ("Cc1cc2ccccc2n1CCNC(=O)COc1ccc2ccccc2c1", "Prostaglandin E2 receptor EP2 subtype (Homo sapiens) (UniProt P43116)", "73.2% (active)"),
]

For Prostaglandin E2 receptor EP2 subtype (Homo sapiens) (UniProt P43116), provide inhibition of CC1=CC(C)(C)N(C(=O)CSc2nnc(-c3ccccc3)o2)c2ccc(C)cc21 please.
45.4% (active)

Record: Cc1cc2ccccc2n1CCC(=O)O
7.85% (inactive)

Record: COCCNS(=O)(=O)c1ccc2[nH]c(=O)[nH]c2c1
9.6% (inactive)

Record: O=C(O)COc1nc(N2CCCCC2)nc(N2CCCCC2)n1
11.5% (inactive)

Record: CCCc1nc2ccccc2n1CC(O)COc1ccc(F)cc1 (configuration not stated)
10.9% (inactive)

Record: Cc1ccc(SCCC(=O)Nc2cc(C)on2)cc1
1.47% (inactive)

Record: CC1=CC(C)(C)N(C(=O)CSc2nccn2C)c2cc(C)ccc21
17.5% (inactive)

----------
# Tested on: Prostaglandin E2 receptor EP2 subtype (Homo sapiens) (UniProt P43116)
# Assay comment: blockers of PGE2-driven EP2 cAMP signalling – TR-FRET cAMP, C6 glioma cells, primary screen (AID 1422);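 note: rat C6 glioma host cells with rolipram phosphodiesterase inhibitor present; the protocol text gives 20 µM as final concentration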
# Condition summary: C6 glioma cells expressing human EP2, cAMP TR-FRET; at 25 µM; hits give high values; cells stimulated with saturating PGE2
The campaign covered roughly 260,000 compounds. About 1,300 (0.5%) were called active. This is one part of a sample in which actives are shown more often than they occur.
Binary classification by inhibition, with 10% as an inclusive lower bound for 1.0; all other cases are 0.0.

Solved entries (count: 4):
# Molecule, Group label
records = [
    ("CCN1CCN(CCNC(=O)c2ccc(/C=C3/Sc4ccccc4N(Cc4cccc(C)c4)C3=O)cc2)CC1", 1.0),
    ("O=c1c2ccc(Br)c3cccc(c32)c2nc3ccccc3n12", 0.0),
    ("CCCN1/C(=C/c2ccc3ccccc3[n+]2CC)Sc2cc(NC(C)=O)ccc21", 1.0),
    ("Cc1[nH]nc2c1C(c1ccc(OCC(=O)N3CCCC3)cc1)C(C#N)=C(N)O2 (stereo not given)", 1.0),
]

Decide: is the reported value of inhibition for CCN1/C(=C\c2ccc3ccccc3[n+]2CC)Sc2cc(C)ccc21 equal to or greater than 10%?
1.0

----------
# Tested on: Prostaglandin E2 receptor EP2 subtype (Homo sapiens) (UniProt P43116)
# Assay comment: blockers of PGE2-driven EP2 cAMP signalling – TR-FRET cAMP, C6 glioma cells, primary screen (AID 1422);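 note: rat C6 glioma host cells with rolipram phosphodiesterase inhibitor present; the protocol text gives 20 µM as final concentration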
# Condition summary: C6 glioma cells expressing human EP2, cAMP TR-FRET; at 25 µM; hits give high values; cells stimulated with saturating PGE2
In all, about 260,000 compounds went through this assay and about 1,300 (0.5%) were called active. Many of the other results were omitted from the sample, so actives are more common in it than they were.
Measure: inhibition

# Molecule, Tested on, inhibition
rows = [
    ("COc1ccc(CNC(=O)CCSc2nc(-c3ccco3)cc(C(F)(F)F)n2)cc1", "Prostaglandin E2 receptor EP2 subtype (Homo sapiens) (UniProt P43116)", "9.17% (inactive)"),
]

Return reported inhibition; argument: CC(C)(C)C1=NN(CC(=O)NCc2ccncc2)C(=O)c2cc3ccccc3n2C1
4.49% (inactive)

Record: O=C(NCc1ccccc1)C(=O)c1c[nH]c2ccccc12
12.1% (inactive)

Record: CC(C)(C)C1=NN(CC(=O)NCCc2ccco2)C(=O)c2cc3ccccc3n2C1
11.5% (inactive)

Record: C/C(Cl)=C\CSc1nc(N2CCOCC2)c2c(c1C#N)CC(C)(C)OC2
9.2% (inactive)

Record: Cc1nnc(NC(=O)CN2CCN(C3CCCCC3)CC2)s1
13.3% (inactive)

Record: COc1ccc(OCCCC(=O)Nc2nc(-c3ccc(OC)cc3)cs2)cc1
12.9% (inactive)

Record: O=C1C=CC(=O)N1c1ccc(N2CCCCC2)cc1
106% (active)

Record: Cc1cc2cc3c(cc2n2c(SCC(=O)Nc4ccc(Cl)cc4)nnc12)OCCO3
19.1% (inactive)

Record: CCOc1ccc(OCC)c(NC(=O)CSc2nc3cc4c(cc3cc2C)OCO4)c1
15.2% (inactive)

Record: Cc1cccc2c(C(=O)Nc3cccc(C(=O)N4CCCCC4)c3)cc(=O)[nH]c12
4.42% (inactive)

Record: CC(C)n1c(SCC(=O)N(Cc2ccccc2)C(C)(C)C)nc2c1c(=O)n(C)c(=O)n2C
9.83% (inactive)

Record: CCOc1ccc2nc(SCC(=O)Nc3ccc(OC)cc3)sc2c1
6.3% (inactive)

Record: COc1ccc2[nH]c3ccc(OC)cc3c2c1
6.17% (inactive)

Record: Cc1nn(CCC(=O)NC2(c3ccccc3)CCCC2)c(C)c1C
7.61% (inactive)

----------
# Tested on: Prostaglandin E2 receptor EP2 subtype (Homo sapiens) (UniProt P43116)
# Assay comment: blockers of PGE2-driven EP2 cAMP signalling – TR-FRET cAMP, C6 glioma cells, primary screen (AID 1422);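 note: rat C6 glioma host cells with rolipram phosphodiesterase inhibitor present; the protocol text gives 20 µM as final concentration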
# Condition summary: C6 glioma cells expressing human EP2, cAMP TR-FRET; at 25 µM; hits give high values; cells stimulated with saturating PGE2
Among all 260,000 compounds or so, about 1,300 (0.5%) were called active. The list comes from a sample in which actives are over-represented; it also holds close analogues and randomly drawn compounds.
Measure: inhibition

The following compounds have reported results that may help.
# Compound, inhibition
measured = [
    ("COc1ccc(NS(=O)(=O)c2ccc(NC(=O)C(C)(C(F)(F)F)C(F)(F)F)cc2)nn1", "14.1% (inactive)"),
    ("CC(C)(C)c1cnnn1-c1ccc(S(N)(=O)=O)cc1", "3.83% (inactive)"),
    ("C[C@H]1O[C@@H](CC(=O)O)Cc2c1c(O)c1c(O)cc(-c3cc(=O)c4c(=O)c5c(c(=O)c=4c3=O)C[C@H](CC(=O)O)O[C@@H]5C)c(O)c1c2O", "41.5% (active)"),
    ("O=C1c2cccc3cccc(c23)C(=O)N1c1ccc(N2C(=O)c3cccc4cccc(c34)C2=O)cc1", "9.96% (inactive)"),
    ("CCN1CCN(C(=O)c2sc3ccccc3c2Cl)CC1", "9.4% (inactive)"),
    ("CN1CCN(C(c2ccc(Cl)cc2)c2nnnn2Cc2ccco2)CC1 (stereo unspecified)", "13.3% (inactive)"),
    ("O=C(O)COc1c(Cl)cc(Cl)c2cccnc12", "16.4% (inactive)"),
    ("COc1cc(C)c(CNC(=O)c2cccc(-n3cnnc3)c2)cc1C(C)C", "4.98% (inactive)"),
]

Return reported inhibition; argument: Cc1ccc2[nH]c(=O)c(CN(Cc3ccccc3Cl)C(=O)N3CCCC3)cc2c1
11.3% (inactive)

Record: O=c1[nH]c2cc3c(cc2cc1C(c1nnnn1C1CCCCC1)N1CCCCC1)OCCO3 (stereo unspecified)
6.82% (inactive)

Record: Cn1c(=O)c2c([nH]c(=O)n2Cc2cccc3ccccc23)n(C)c1=O
11.4% (inactive)

Record: Cc1ccc(NC(=S)NC(=O)/C=C/c2ccc(Cl)cc2)cc1
5.92% (inactive)

Record: CC(Nc1nc(N2CCN(CCO)CC2)nc2ccccc12)c1ccccc1 (stereo unspecified)
7.4% (inactive)

Record: CCc1ccc2nc3sc(C(=O)OC)c(N)c3cc2c1
11.6% (inactive)

Record: Cc1c(O)c(Br)c(C)c(O)c1Br (tested in a mixture with another compound)
105% (active)

Record: CCN1/C(=C/c2ccc3ccc(C)cc3[n+]2CC)Sc2ccccc21
49.2% (active)

Record: CC(Nc1nc(N2CCOCC2)nc2ccccc12)c1ccccc1 (stereo unspecified)
7.73% (inactive)

Values were extracted from PubChem BioAssay AID1422.
